measurement-target: Serine/threonine-protein kinase Chk2 (Homo sapiens, UniProt O96017)
Sequence (O96017 whole entry): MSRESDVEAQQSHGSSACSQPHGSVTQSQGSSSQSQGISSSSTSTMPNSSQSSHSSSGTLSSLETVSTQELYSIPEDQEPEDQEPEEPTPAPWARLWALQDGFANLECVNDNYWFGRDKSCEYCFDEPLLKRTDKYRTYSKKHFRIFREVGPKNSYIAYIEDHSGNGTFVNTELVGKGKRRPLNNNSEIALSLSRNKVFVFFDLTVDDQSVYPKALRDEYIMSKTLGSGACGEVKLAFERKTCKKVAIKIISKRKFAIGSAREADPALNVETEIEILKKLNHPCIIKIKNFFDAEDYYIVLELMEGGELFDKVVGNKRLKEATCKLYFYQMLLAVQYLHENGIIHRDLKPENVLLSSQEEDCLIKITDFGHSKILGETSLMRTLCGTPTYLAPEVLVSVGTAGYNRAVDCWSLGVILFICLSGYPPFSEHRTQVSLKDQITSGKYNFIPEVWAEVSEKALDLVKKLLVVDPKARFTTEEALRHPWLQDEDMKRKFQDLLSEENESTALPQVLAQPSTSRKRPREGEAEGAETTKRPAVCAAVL
protocol-description: NanoBRET (SGC-Frankfurt) (CHEK2)
pIC50: −log10 of the molar value.
readout-name: pIC50

* CS(=O)(=O)N1CCCC(NC(=O)[C@H](CCC2CCCCC2)NC(=O)c2ccc(CNC(=O)c3cnc4ccccn34)cc2)C1 (stereo partly specified) | < 4.60

----------
measurement-target: Serine/threonine-protein kinase 38-like (Homo sapiens, UniProt Q9Y2H1)
Sequence (Q9Y2H1 whole entry): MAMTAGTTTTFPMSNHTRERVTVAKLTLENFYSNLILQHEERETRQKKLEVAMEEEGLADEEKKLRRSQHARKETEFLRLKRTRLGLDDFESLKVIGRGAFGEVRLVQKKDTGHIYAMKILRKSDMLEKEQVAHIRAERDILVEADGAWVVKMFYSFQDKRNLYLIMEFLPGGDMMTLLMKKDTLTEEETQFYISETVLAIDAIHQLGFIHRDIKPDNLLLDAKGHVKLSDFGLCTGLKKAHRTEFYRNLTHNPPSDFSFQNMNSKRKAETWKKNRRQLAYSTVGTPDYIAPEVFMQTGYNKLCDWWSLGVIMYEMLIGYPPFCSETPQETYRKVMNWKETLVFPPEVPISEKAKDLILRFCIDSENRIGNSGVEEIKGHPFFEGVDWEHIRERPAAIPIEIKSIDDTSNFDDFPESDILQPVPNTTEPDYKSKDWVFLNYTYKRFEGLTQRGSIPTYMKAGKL
protocol-description: NanoBRET (SGC-Frankfurt) (STK38L)
readout-name: IC50

- CS(=O)(=O)N1CCCC(NC(=O)[C@H](CCC2CCCCC2)NC(=O)c2ccc(CNC(=O)c3cnc4ccccn34)cc2)C1 (stereo partly specified) [SR-302]: > 25 µM

----------
measurement-target: Serine/threonine-protein kinase B-raf (Homo sapiens, UniProt P15056)
Sequence (P15056 whole entry): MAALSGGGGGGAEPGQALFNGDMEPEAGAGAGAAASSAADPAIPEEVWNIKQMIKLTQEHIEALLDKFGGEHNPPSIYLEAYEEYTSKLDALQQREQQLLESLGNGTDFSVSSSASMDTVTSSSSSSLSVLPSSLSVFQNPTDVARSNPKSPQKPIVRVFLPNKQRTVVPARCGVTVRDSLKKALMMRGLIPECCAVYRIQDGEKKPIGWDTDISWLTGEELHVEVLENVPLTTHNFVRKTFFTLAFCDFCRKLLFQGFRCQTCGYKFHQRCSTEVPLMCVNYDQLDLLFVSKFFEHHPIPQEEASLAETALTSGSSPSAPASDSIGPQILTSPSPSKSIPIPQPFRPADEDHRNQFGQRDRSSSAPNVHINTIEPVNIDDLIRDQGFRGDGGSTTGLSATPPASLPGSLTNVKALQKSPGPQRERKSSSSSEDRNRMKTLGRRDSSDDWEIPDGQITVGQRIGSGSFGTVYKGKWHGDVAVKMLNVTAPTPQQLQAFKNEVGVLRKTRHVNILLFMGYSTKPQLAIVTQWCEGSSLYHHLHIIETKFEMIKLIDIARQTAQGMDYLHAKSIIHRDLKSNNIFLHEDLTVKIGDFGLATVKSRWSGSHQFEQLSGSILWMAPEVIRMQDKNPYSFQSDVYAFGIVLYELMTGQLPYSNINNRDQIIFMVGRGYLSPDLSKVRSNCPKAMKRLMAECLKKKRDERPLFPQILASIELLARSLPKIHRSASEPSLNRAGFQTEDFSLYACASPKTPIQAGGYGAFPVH
protocol-description: NanoBRET (SGC-Frankfurt) (BRAF)
readout-name: IC50

* CS(=O)(=O)N1CCCC(NC(=O)[C@H](CCC2CCCCC2)NC(=O)c2ccc(CNC(=O)c3cnc4ccccn34)cc2)C1 (stereo partly specified) [SR-302] | > 25 µM
